# Tested on: SB cells
# procedure_text: Cytotoxicity assay (CellTiter 96 AQueous One Solution Cell Proliferation Assay)
# assay_context: SB cells, 4 h treatment
value_kind: MC, max concentration that can be used without cytotoxicity (µM)
Give the number; µM is assumed, so skip it.

In the examples that follow, each entry is paired with its recorded MC, max concentration that can be used without cytotoxicity.
>>> df
                                item_smiles  assay_target  measured_result
0        Oc1ccc2ccccc2c1SSc1c(O)ccc2ccccc12      SB cells               40
1  C=C1[C@@H](C)[C@H]2[C@H](Cc3ccccc3)NC(=O)[C@]23[C@H](OC(C)=O)/C=C/[C@@](C)(O)C(=O)[C@@H](C)C/C=C/[C@H]3[C@@H]1O      SB cells             77.8
2  COC[C@H]1OC(=O)c2coc3c2[C@@]1(C)C1=C(C3=O)[C@@H]2CCC(=O)[C@@]2(C)C[C@H]1OC(C)=O      SB cells               50

Note: attention shifts to another entry.
Entry COC(=O)Nc1nc2ccc(C(=O)c3cccs3)cc2[nH]1 , MC, max concentration that can be used without cytotoxicity reported as 160

* * *

# Tested on: SB cells
# procedure_text: Cytotoxicity assay (CellTiter 96 AQueous One Solution Cell Proliferation Assay)
# assay_context: SB cells, 4 h treatment
# Experimental: To optimize the working concentration of the inhibitors, the cytotoxicity of the drugs to SB cells were evaluated. SB cells grown in 96-well plates were treated with the inhibitors at different concentrations for 4 h. Then cell viability was assayed using CellTiter 96® AQueous One Solution Cell Proliferation Assay (Promega, USA) according to the manufacturer’s instructions.
Label rule, in plain words: MC, max concentration that can be used without cytotoxicity of 50 µM and up is true (1), under 50 µM is false (0).

Worked cases, answers included:
>>> df
                                   compound  label_class
0       O=S(=O)(c1cccc2c(I)cccc12)N1CCCNCC1    false (0)
1  CCN(CC)CCCC(C)Nc1ccnc2cc(Cl)ccc12 (centres unmarked)     true (1)

Q. Say whether O=c1c(-c2ccc(O)cc2)coc2cc(O)cc(O)c12 shows MC, max concentration that can be used without cytotoxicity of 50 µM or more.
A. true (1)

Q. Can O=C(N/N=C/c1ccc(O)c(O)c1)c1cc2ccccc2cc1O be said to have MC, max concentration that can be used without cytotoxicity at or above 50 µM?
A. true (1)

Q. Is MC, max concentration that can be used without cytotoxicity at least 50 µM? Consider CN(C)CCCN1c2ccccc2Sc2ccc(Cl)cc21
A. true (1)

Q. State whether the measured MC, max concentration that can be used without cytotoxicity reaches 50 µM, counting equality as reaching it, for CCN(CC)CCCC(C)Nc1nc(C)cc(Nc2ccc3nc(C)cc(N)c3c2)n1 (centres unmarked)
A. false (0)

Q. Could you tell me if the measured MC, max concentration that can be used without cytotoxicity of CC(=O)c1c(O)c(C)c(O)c(Cc2c(O)c3c(c(C(=O)/C=C/c4ccccc4)c2O)OC(C)(C)C=C3)c1O reaches 50 µM or more?
A. false (0)

* * *

# System: RBS entry into SB cells
# procedure_text: VLP (RBS) entry assay with inhibitor or siRNA perturbation, ELISA quantitation
# Format: cell-based, Lates calcarifer
# assay_context: Lates calcarifer, read-out: RBS entry blocked (inhibited)
Tick true (1) if inhibition at 1 µM is 70% or greater. Tick false (0) if inhibition at 1 µM is less than 70%.

These recorded examples may help you get a feel for the data.
>>> df
                                   compound  label_class
0  COC[C@H]1OC(=O)c2coc3c2[C@@]1(C)C1=C(C3=O)[C@@H]2CCC(=O)[C@@]2(C)C[C@H]1OC(C)=O    false (0)
1  C=C1[C@@H](C)[C@H]2[C@H](Cc3ccccc3)NC(=O)[C@]23[C@H](OC(C)=O)/C=C/[C@@](C)(O)C(=O)[C@@H](C)C/C=C/[C@H]3[C@@H]1O     true (1)
2    COC(=O)Nc1nc2ccc(C(=O)c3cccs3)cc2[nH]1    false (0)

Now, please, on to the next compound.
Q. Does inhibition at 1 µM meet or surpass 70% for CN(C)C[C@H](O)Cn1c2ccc(Br)cc2c2cc(Br)ccc21 (racemic) ?
A. true (1)

* * *

# System: RBS entry into SB cells
# procedure_text: VLP (RBS) entry assay with inhibitor or siRNA perturbation, ELISA quantitation
# Assay type: cell-based, Lates calcarifer
# assay_context: Lates calcarifer, read-out: RBS entry blocked (inhibited)
value_kind: inhibition at 10 µM

compound	inhibition at 10 µM
CCN(CC)CCCC(C)Nc1ccnc2cc(Cl)ccc12 (stereo not shown) [chloroquine]	> 70%

Summary for this compound, CN(C)C[C@H](O)Cn1c2ccc(Br)cc2c2cc(Br)ccc21 (racemic) [wiskostatin] : inhibition at 10 µM is 84.6%

# inhibition at 10 µM of COC[C@H]1OC(=O)c2coc3c2[C@@]1(C)C1=C(C3=O)[C@@H]2CCC(=O)[C@@]2(C)C[C@H]1OC(C)=O [wortmannin] = 0.82%

Just so you know, measured inhibition at 10 µM for C=C1[C@@H](C)[C@H]2[C@H](Cc3ccccc3)NC(=O)[C@]23[C@H](OC(C)=O)/C=C/[C@@](C)(O)C(=O)[C@@H](C)C/C=C/[C@H]3[C@@H]1O [CytD, cytochalasin D] came out at 96%
